- assayTarget: T1, Fucosylated PSA disaccharide glycopeptide (DP) (human, not fully specified (residue 3, C-terminus))
- T1 construct: also called glycopeptide of Formula IV
- T1 peptide: IRNKSVILLGRHS
- runDescription: IHC peptide inhibition, antibody pre-incubated with peptide
- Procedure: FIG. 8. Inhibition of anti-1,6fucPSA antibody binding by fucosylated PSA disaccharide glycopeptide (DP) in IHC analysis of FFPE samples of prostate adenocarcinoma samples. From top to bottom rows, exemplary anti-1,6fucPSA antibodies, FIG. 8A: 2E9, 3B10, and 3H6 at 2.5 μg/ml, 2.5 μg/ml, and 2.5 μg/ml, respectively; FIG. 8B: 13C5, 2H9, and 2C11 at 3 μg/ml, 2.5 μg/ml, and 1 μg/ml, respectively. […]
Ends that are not written are not given here.
parameterMeasured: peptide concentration giving complete inhibition (µM)
Respond numerically; units are µM and should not be typed.

Return peptide concentration giving complete inhibition (reported value) for this binder: 3B10 (antibody, V domains shown, Rabbit monoclonal IgG (150 kDa); also called anti-1,6fucPSA antibody 3B10) VH: QSLEESGGGLVKPGGTLTLTCKASGFSFSSGYDMCWVRQAPGKGLEWIACIYADGSDNTYYASWAKGRFTISKTSSTTVTLQMTRLTAADTATYFCAREGADNPNYGYAALRLWGPGTLVTVSS VL: DIVMTQTPASVEAPVGGTVTIKCQATQSISSYLSWYQQKPGQPPKLLIYKTSTLASGVPSRFKGSGSGTEFTLTISDLECANAATYYCQSYYGSISSDYGGFAFGGGTEVVVK
5

Find the measured peptide concentration giving complete inhibition of 2H9 (antibody, V domains shown, Rabbit monoclonal IgG (150 kDa); also called anti-1,6fucPSA antibody 2H9) VH: QSLEESGGDLVKPGASLTLTCTASGFSFSSGYDMCWVRQAPGKGPEWIACIYADGSGSTYYASWAKGRFTISMTSSTTVTLQMTRLTAADTATYFCAREGADDPNYGYAALRLWGPGTLVTVSS VL: DIVMTQTPASVEAAVGGTVTIKCQASQSISNYLAWYQQKPGQPPKLLIYKTSTLASGVPSRFKGSGSGTEFTLTISDLECADAATYYCQSFYGSVSSDYGGFAFGGGTEVVVK and report it.
5
